Origin of measurements: patent WO2007023782A1

Recorded koff values for a group of binders are listed next.
- experimental.target: T1, nmAb-KT (neutralizing monoclonal antibody against HM-1 killer toxin)
- T1 construct: also called nmb-KT; HM-1 neutralizing monoclonal antibody
- experiment.description: SPR (BIAcore X), nmAb-KT immobilised on CM5 chip, ScFv 15.75-250 nM as analyte, 25 C, HBS-EP
measured.endpoint: koff (s⁻¹)

binder	measured.endpoint	experimental.value
ScFv-A4 (scFv, Mouse anti-idiotypic single chain Fv, VH-(Gly4Ser)3 linker-VL, with a C-terminal E-Tag; also called ScFv KTIdAb; anti-idiotypic ScFv) scFv: MAQVKLQQSGAELMKPGASVKISCKATGYTFSSYWIEWVKQRPGHGLEWIGEILPGSGSTNYNEKFKGKATFTADTSSNTAYMQLSSLTSEDSAVYYCARYYGNYYAMDYWGQGTTVTVSSGGGGSGGGGSGGGGSDIVLTQSPAIMSASPGEKSPSPAVSAQVYVPATCTGTSRSQKPPPNPGFMAHPTWLLESQVASVAVGLENSYSLTISSMEAEDVATYYCFQGSGYPLTFGSGTKLEIKRAAAGAPVPYPDPLEPR	koff	0.005
ScFv-A2 (scFv, V domains shown, Mouse anti-idiotypic single chain Fv, VH-(Gly4Ser)3 linker-VL, with a C-terminal E-Tag; also called ScFv KTIdAb; anti-idiotypic ScFv) VH: QVKLQQSGAELMKPGASVKISCKATGYTFSSYWIEWVKQRPGHGLEWIGEILPGSGSTNYNEKFKGKATFTADTSSNTAYMQLSSLTSEDSAVYYCARYYGNYYAMDYWGQGTTVTVSS	koff	0.00458
ScFv-A1 (scFv, also called ScFv-Al; ScFv KTIdAb) scFv: MAQVKLQQSGAELMKPGASVKISCKATGYTFSSYWIEWVKQRPGHGLEWIGEILPGSGSTNYNEKFKGKATFTADTSSNTAYMQLSSLTSEDSAVYYCARYYGNYYAMDYWGQGTTVTVSSGGGGSGGGGSGGGGSDIVLTQSPAIMSASPGEKVTITCSVSSSISSSNLHWYQQKSETSPKPWIYGTSNLASGVPGRFSGSGSGNSYSLTISSMEAEDVATYYCFQGSGYPLTFGSGTKLEIKRAAAGAPVPYPDPLEPR	koff	0.00507
